List of Increase in CBF values.
- Organism: Cavia porcellus
- PROTOCOL_DETAILS: Increase in the coronary blood flow (CBF) was determined in isolated guinea pig heart at a dose of 100 ug/heart
- Type: functional

Worked examples, 5 molecules total:
COc1ccc(C2Sc3c(F)cccc3N(CCN(C)C)C(=O)C2OC(C)=O)cc1.Cl (stereo not drawn) ... >0.5 mL/min
COc1ccc(C2Sc3cc(Cl)ccc3N(CCN(C)C)C(=O)C2OC(C)=O)cc1.Cl (single isomer, unassigned; (-)) ... <0.5 mL/min
COc1ccc(C2Sc3c(ccc(Cl)c3Cl)N(CCN(C)C)C(=O)C2OC(C)=O)cc1.Cl (stereo not drawn) ... >0.5 mL/min
COc1ccc(C2Sc3cc(F)ccc3N(CCN(C)C)C(=O)C2OC(C)=O)cc1.Cl (stereo not drawn) ... >0.5 mL/min
COc1ccc(C2Sc3c(Cl)cccc3N(CCN(C)C)C(=O)C2OC(C)=O)cc1.Cl (single isomer, unassigned; (-)) ... <0.5 mL/min

Look up Increase in CBF: COc1ccc(C2Sc3cc(Cl)ccc3N(CCN(C)C)C(=O)C2OC(=O)c2ccc([N+](=O)[O-])cc2Cl)cc1 (single isomer, unassigned; (+))
>0.5 mL/min

Fill blank: measured Increase in CBF of the molecule CCCN(C)CCN1C(=O)C(O)C(c2ccc(OC)cc2)Sc2cc(Cl)ccc21 (stereo not drawn) is ____.
>0.5 mL/min

// query Increase in CBF value for entry COc1ccc(C2Sc3cc(Cl)ccc3N(CCN(C)C)C(=O)C2OC=O)cc1 (single isomer, unassigned; (+))
>0.5 mL/min
